- Test details: Study CL-005 in subjects with onychomycosis, plasma PK
- Type: in vivo
- Stated conditions: human, 600 mg, Day 14, High Dose (600 mg), 12 weeks
- Experimental: Within each treatment group, oteseconazole plasma exposures increased throughout the dosing regimen from Day 1 to Week 12 or 24. […] Mean Cmax and AUC0-8 values after the Day 14 dose (completion of the loading dose phase of the study) were similar for the 300 mg 12-week and 300 mg 24-week treatment groups, and for the 600 mg 12-week and 600 mg 24-week treatment groups, as expected.
Measurement label: Cmax (µg/mL)
Dear colleague, please return just the value in µg/mL, with no unit written.

[ask] I'd like to know its Cmax. The molecule in question is O[C@@](Cn1cnnn1)(c1ccc(F)cc1F)C(F)(F)c1ccc(-c2ccc(OCC(F)(F)F)cc2)cn1 [Oteseconazole, oteseconazole]
[reply] 8.29
